Attribution: PubChem BioAssay AID463213

assay: growth inhibitors of tim10-1 mutant yeast, confirmation, single concentration, luminescence, S. cerevisiae (AID 463213);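 also: tim10-1 mutant grown at permissive 25 °C to find synthetic lethal compounds; 0% = DMSO yeast wells and 100% = medium wells without yeast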; details: S. cerevisiae tim10-1 ts strain growth, BacTiter-Glo, 24 h; at 20 µM; active compounds read high
About 4,100 (55%) of roughly 7,400 compounds were called active. So high a share suggests a set chosen from earlier hits. The list is a sample of the results.
Recorded Endpoint: inhibition

Completed entries (count: 5):
CNC(=O)/C(C#N)=C/c1c(F)cccc1Cl ... 50.1% (active)
Cc1ccc(C(=O)NC(=S)Nc2ccccc2C)cc1 ... 29.8% (active)
CC(C)c1cc(C(N)=O)c(NC(=O)c2cccc(COc3ccc(Br)cc3)c2)s1 ... 26.9% (inactive)
Cc1cccc(OCCNC(=S)NC(=O)c2cccnc2)c1 ... 27.1% (inactive)
O=C(CCc1ccc(S(=O)(=O)N2CCOCC2)cc1)Nc1ccc2ccccc2c1 ... 28.1% (inactive)

I have 2 compounds here; please give me inhibition for each one.
1. CCOC(=O)c1c(CN2CCOCC2)n(-c2ccccc2)c2ccc(O)cc12
2. COCCNC(=O)/C(C#N)=C/c1cccc(OCc2ccccc2)c1

A)
1: 22.6% (inactive); 2: 70.2% (active)

I have 4 compounds here; please give me inhibition for each one.
1. O=C(/C=C/c1cccs1)c1cc(Cl)ccc1OC(=O)N1CCOCC1
2. COc1ccc2c(c1)cc1n2CCN=C1NN
3. O=C(NCCc1ccc(F)cc1)c1ccc(S(=O)(=O)N2CCCCC2)cc1
4. COc1ccccc1N1CCN(C(=O)c2cc(=O)c3cc(C)cc(C)c3o2)CC1

A)
["48.5% (active)", "27.9% (inactive)", "43.5% (active)", "24.9% (inactive)"]
